Ki by entry:
test: Inhibition of 5-FAM tracer binding to WDR5 delta23 mutant (24 to 334 residues) (unknown origin) expressed in Escherichia coli Rosetta 2 (DE3) cells after 3 hrs by fluorescence polarization assay; parameters: species or system Homo sapiens
Bridge positions count the residues as written; N and C are the ends. Square brackets hold non-standard residues; d marks the D form. Peptide text beside a SMILES is read from it. * marks the point of attachment. dPhg = N[C@@H](C(=O)O)c1ccccc1; Isobutyryl = CC(C)C(=O)*; dDap = NC[C@@H](N)C(=O)O; Abu = CC[C@H](N)C(=O)O
PARAMETER_MEASURED: Ki

MOLECULE	PARAMETER_MEASURED	VALUE
CC[C@@H]1NC(=O)[C@H](CCCNC(=N)N)NC(=O)[C@H](NC(=O)C(C)C)CNC(=O)[C@@H](c2ccccc2)NC1=O (Isobutyryl-[dDap]R[Abu][dPhg]; lactam 1-C)	Ki	242 nM
CC[C@@H]1NC(=O)[C@H](CCCNC(=N)NC)NC(=O)[C@](C)(NC(=O)C(C)C)CCNC(=O)[C@H](c2ccccc2)NC1=O	Ki	< 1 nM
CC[C@@H]1NC(=O)[C@H](CCCNC(=N)N)NC(=O)[C@](C)(NC(=O)C(C)C)CCCCCNC(=O)[C@@H](c2ccccc2)NC1=O	Ki	< 1 nM

====

system: HL-60; test: Cytotoxicity against human HL60 cells lacking MLL translocation assessed as cell growth inhibition after 4 days by WST8 assay; format: cell-based; conditions: HL-60, 96 h
Bridge positions count the residues as written; N and C are the ends. Square brackets hold non-standard residues; d marks the D form. Peptide text beside a SMILES is read from it. * marks the point of attachment. Arg(Me2s) = CN=C(NC)NCCC[C@H](N)C(=O)O; Arg(Me) = CNC(=N)NCCC[C@H](N)C(=O)O; d(αMeK) = C[C@@](N)(CCCCN)C(=O)O; dPhg = N[C@@H](C(=O)O)c1ccccc1; dOrn = NCCC[C@@H](N)C(=O)O; dDab = NCC[C@@H](N)C(=O)O; Isobutyryl = CC(C)C(=O)*; Abu = CC[C@H](N)C(=O)O
Binarize IC50 at 50 µM; below is T, at or above is F.

COMPOUND	STUDY_TARGET	CLASSIFICATION
CC[C@@H]1NC(=O)[C@H](CCCNC(=N)N)NC(=O)[C@H](NC(=O)C(C)C)CCNC(=O)[C@@H](c2ccccc2)NC1=O (Isobutyryl-[dDab]R[Abu][dPhg]; lactam 1-C)	HL-60	F
CC[C@@H]1NC(=O)[C@H](CCCNC(=N)NC)NC(=O)[C@](C)(NC(=O)C(C)C)CCCCNC(=O)[C@@H](c2ccccc2)NC1=O (Isobutyryl-[d(αMeK)][Arg(Me)][Abu][dPhg]; lactam 1-C)	HL-60	F
CC[C@@H]1NC(=O)[C@H](CCCNC(=N)N)NC(=O)[C@](C)(NC(=O)C(C)C)CCNC(=O)[C@@H](c2ccccc2)NC1=O.O=C(O)C(F)(F)F	HL-60	T
CC[C@@H]1NC(=O)[C@H](CCCNC(=N)N)NC(=O)[C@](C)(NC(=O)C(C)C)CCCCNC(=O)[C@@H](c2ccccc2)NC1=O.O=C(O)C(F)(F)F	HL-60	F
CC[C@@H]1NC(=O)[C@H](CCCNC(=N)N)NC(=O)[C@](C)(NC(=O)C(C)C)CCCCCNC(=O)[C@@H](c2ccccc2)NC1=O	HL-60	F
CC[C@@H]1NC(=O)[C@H](CCCNC(=N)NC)NC(=O)[C@](C)(NC(=O)C(C)C)CCNC(=O)[C@@H](c2ccccc2)NC1=O.O=C(O)C(F)(F)F	HL-60	T
CC[C@@H]1NC(=O)[C@H](CCCNC(=N)N)NC(=O)[C@H](NC(=O)C(C)C)CCCCNC(=O)[C@@H](c2ccccc2)NC1=O (Isobutyryl-[dK]R[Abu][dPhg]; lactam 1-C)	HL-60	F
CC[C@@H]1NC(=O)[C@H](CCCN/C(=N/C)NC)NC(=O)[C@](C)(NC(=O)C(C)C)CCCCNC(=O)[C@@H](c2ccccc2)NC1=O (Isobutyryl-[d(αMeK)][Arg(Me2s)][Abu][dPhg]; lactam 1-C)	HL-60	F
CC[C@@H]1NC(=O)[C@H](CCCNC(=N)N)NC(=O)[C@H](NC(=O)C(C)C)CCCNC(=O)[C@@H](c2ccccc2)NC1=O (Isobutyryl-[dOrn]R[Abu][dPhg]; lactam 1-C)	HL-60	F
CC[C@H]1NC(=O)[C@@H](CCCNC(=N)N)NC(=O)[C@@](C)(NC(=O)C(C)C)CCCCNC(=O)[C@H](c2ccccc2)NC1=O	HL-60	F
CC[C@@H]1NC(=O)[C@H](CCCNC(=N)N)NC(=O)[C@](C)(NC(=O)C(C)C)CCCNC(=O)[C@@H](c2ccccc2)NC1=O.O=C(O)C(F)(F)F	HL-60	T
CC[C@@H]1NC(=O)[C@H](CCCNC(=N)N)NC(=O)[C@](C)(NC(=O)C(C)C)CCCCN(C)C(=O)[C@@H](c2ccc(F)cc2)NC1=O.O=C(O)C(F)(F)F	HL-60	F
